Target: T1, PSMA Fab (biotinylated (site not stated))
T1 construct: Biotinylated PSMA Fab captured on neutravidin coated plates in the phage ELISA; also called Anti-PSMA Fab; 006 PSMA Fab
Test: clonal phage ELISA on biotinylated PSMA Fab captured on neutravidin plates, blocking buffer alone; anti-M13 HRP detection
propertyName: phage binding ELISA signal

1. MYIHCVPEWMCRGF [Phage-3325]: 1.85
2. IMPKCVPSWMCTGL [Phage-3322]: 1.85
3. IDRMCKPVWMCEGF [Phage-3334]: 1.84
4. AGSMCTPMWMCTGF [Phage-3323]: 1.85

These entries and their values trace back to patent US20260242478A1.
